target: Ubiquitin carboxyl-terminal hydrolase 30 (Homo sapiens) (UniProt Q70CQ3); assay: inhibitors of ubiquitin-specific protease 30 deubiquitylating enzyme, concentration dependence, in vitro biochemical, validation of primary hits (AID 1645865); conditions: purified USP30, Ub-rhodamine cleavage, fluorescence, 2 h
Sequence (Q70CQ3 whole entry, looked up): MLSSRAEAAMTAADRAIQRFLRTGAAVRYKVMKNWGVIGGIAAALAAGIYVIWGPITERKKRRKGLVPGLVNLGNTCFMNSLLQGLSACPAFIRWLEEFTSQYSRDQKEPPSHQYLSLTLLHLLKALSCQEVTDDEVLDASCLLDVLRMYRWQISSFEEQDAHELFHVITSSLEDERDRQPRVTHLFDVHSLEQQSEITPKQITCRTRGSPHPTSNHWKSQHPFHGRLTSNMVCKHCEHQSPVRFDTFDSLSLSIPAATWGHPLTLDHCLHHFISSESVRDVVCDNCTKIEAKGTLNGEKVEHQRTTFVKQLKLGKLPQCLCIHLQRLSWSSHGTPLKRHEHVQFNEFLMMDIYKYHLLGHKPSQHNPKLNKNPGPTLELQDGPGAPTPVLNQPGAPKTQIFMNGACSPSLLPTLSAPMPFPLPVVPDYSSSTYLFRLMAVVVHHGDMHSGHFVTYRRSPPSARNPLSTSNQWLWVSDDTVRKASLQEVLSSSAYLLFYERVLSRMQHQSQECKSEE
Activity calls are given as the source filed them.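 Rule for the calls: active = maximal inhibition of the USP30 enzyme reaching 30% or more across the dose series; inactive = the rest.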
Your reply should match one of these outcome classes. class 1 (active), class 0 (inactive)

{"smiles-notation": "CCCC(=O)Nc1ccc(SCc2nnc(-c3ccccc3)o2)cc1", "cat": "class 0"}

q: Check the results log: what was the call for "CN(C)c1cc(-n2cnc(C(=O)NCc3ccccc3Cl)c2)ncn1" ?
a: class 1

q: Check the results log: what was the call for "Cc1oc2ccc(NS(=O)(=O)c3ccc(F)cc3)cc2c1C(=O)OCc1ccccc1" ?
a: class 1

q: Check the results log: what was the call for "COc1cnc(CSc2ncccn2)cc1OCC(=O)Nc1cc(C)ccc1C" ?
a: class 1

q: Check the results log: what was the call for "CCc1ccc(NC(=O)COC(=O)c2n[nH]c3ccccc23)cc1" ?
a: class 1

q: Check the results log: what was the call for "COc1c2nc3ccccc3oc-2cc(=O)c1OC" ?
a: class 0

q: Check the results log: what was the call for "O=C(Nc1cccc(F)c1)c1ncoc1-c1ccco1" ?
a: class 0

q: Check the results log: what was the call for "COc1ccc(NC(=O)CN2C(=O)c3ccccc3Sc3ccc(C(=O)N4CCCC4)cc32)c(OC)c1" ?
a: class 0

Recorded values, source PubChem BioAssay AID1645865.
